Target: Neuropilin-1 (Homo sapiens) (UniProt O14786)
Sequence (O14786 whole entry, looked up): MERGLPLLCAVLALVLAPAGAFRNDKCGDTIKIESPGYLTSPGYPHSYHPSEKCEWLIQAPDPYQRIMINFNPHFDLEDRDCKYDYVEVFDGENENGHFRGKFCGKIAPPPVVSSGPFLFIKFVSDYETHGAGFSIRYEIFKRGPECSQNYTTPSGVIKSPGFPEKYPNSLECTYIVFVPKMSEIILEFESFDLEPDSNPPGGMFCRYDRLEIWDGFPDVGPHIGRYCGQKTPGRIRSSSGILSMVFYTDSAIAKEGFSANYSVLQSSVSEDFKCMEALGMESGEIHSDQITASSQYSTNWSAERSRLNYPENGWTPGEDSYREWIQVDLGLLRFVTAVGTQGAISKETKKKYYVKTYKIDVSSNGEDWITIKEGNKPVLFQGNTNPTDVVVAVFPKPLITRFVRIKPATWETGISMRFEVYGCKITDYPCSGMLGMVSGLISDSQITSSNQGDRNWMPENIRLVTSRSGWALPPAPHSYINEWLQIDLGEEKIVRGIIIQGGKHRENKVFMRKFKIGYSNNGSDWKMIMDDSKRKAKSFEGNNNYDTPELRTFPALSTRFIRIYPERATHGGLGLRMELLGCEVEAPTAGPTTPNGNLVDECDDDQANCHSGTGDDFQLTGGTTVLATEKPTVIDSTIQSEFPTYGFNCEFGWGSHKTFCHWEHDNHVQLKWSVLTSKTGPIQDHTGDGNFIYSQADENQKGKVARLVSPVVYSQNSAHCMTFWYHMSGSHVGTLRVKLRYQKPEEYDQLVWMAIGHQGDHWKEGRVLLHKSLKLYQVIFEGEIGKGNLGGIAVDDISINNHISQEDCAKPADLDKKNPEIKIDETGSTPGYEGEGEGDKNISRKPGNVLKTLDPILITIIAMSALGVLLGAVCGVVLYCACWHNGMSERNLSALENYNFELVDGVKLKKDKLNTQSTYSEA
Experiment: NRP-1 b1b2 CendR peptide binding inhibitors, dose response, biochemical, FP and AlphaScreen panel (AID 651650)
Details: NRP-1 b1b2 / RPARPAR peptide binding, FP or AlphaScreen; AlphaScreen, mean of runs
Activity calls are given as the source filed them.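 How the source made its calls: active means mean IC50 below 20 µM in each of the two panels, so potent in both; inactive means the rest.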
In this exercise, the only acceptable responses are 1.0 for active, 0.0 for inactive

| compound | category label |
| --- | --- |
| CCN(CC)C(=O)C1CCCN(C(=O)Nc2ccc3nsnc3c2)C1 (stereo unspecified) | 0.0 |
| O=C(Nc1ccc(N2CCOCC2)cc1)c1cc(-n2cnnc2)ccc1Cl | 0.0 |
| C#CCCOC(=O)N1C2=NC(C(=O)OC)=C(C(=O)OC)[C@@H]3N(C)c4ccccc4[C@]23C[C@H]1CO | 1.0 |
| COc1ccc(/C=N/NC(=O)c2cc(C(C)(C)C)[nH]n2)cc1COc1ccc(F)cc1F | 0.0 |
| CCn1cc(C(=O)N2CCN(C(=O)c3ccco3)CC2)c2cc(OC)c(OC)cc2c1=O | 0.0 |
| Cc1ccccc1/C=C/c1nc2ccccc2c(=O)n1CCc1ccccc1 | 0.0 |

# input // return assay outcome for CC(C)Cc1ccc(C(C)C(=O)Nc2ccc(O)cc2)cc1 (stereo unspecified)
# output 0.0
